Source of measurements: patent US5668161A

- TARGET UNDER TEST: human COX-II (Homo sapiens, UniProt P35354)
- Sequence (P35354 18-604): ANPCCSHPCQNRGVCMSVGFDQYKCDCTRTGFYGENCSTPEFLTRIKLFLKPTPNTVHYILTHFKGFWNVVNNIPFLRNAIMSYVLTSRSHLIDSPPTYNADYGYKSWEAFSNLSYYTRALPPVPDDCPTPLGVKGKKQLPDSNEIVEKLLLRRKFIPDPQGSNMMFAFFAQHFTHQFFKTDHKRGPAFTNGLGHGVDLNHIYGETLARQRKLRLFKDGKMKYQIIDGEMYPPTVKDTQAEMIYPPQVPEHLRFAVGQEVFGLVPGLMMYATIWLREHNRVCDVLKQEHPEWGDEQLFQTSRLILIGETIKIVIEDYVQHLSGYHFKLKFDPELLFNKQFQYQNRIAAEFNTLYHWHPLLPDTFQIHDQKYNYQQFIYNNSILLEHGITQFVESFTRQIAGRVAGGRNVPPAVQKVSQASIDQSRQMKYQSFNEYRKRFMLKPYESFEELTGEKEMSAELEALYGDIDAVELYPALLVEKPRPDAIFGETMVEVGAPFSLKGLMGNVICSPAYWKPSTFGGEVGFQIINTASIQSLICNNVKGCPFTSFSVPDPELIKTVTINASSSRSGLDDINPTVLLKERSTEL
pIC50: −log10 of the molar value.
PROPERTY LABEL: pIC50

In the examples that follow, each entry is paired with its recorded pIC50.
COc1ccc(-c2nc(-c3ccccc3Cl)sc2-c2ccc(S(C)(=O)=O)cc2)cc1; > 7.00
COc1ccc(OCc2nc(-c3ccc(F)cc3)c(-c3ccc(S(C)(=O)=O)cc3)s2)cc1; > 7.00
CS(=O)(=O)c1ccc(-c2sc(C(Br)S(=O)(=O)c3cccs3)nc2-c2ccc(F)cc2)cc1 (stereo not shown); 6.22

Moving on to the next compound.
Supply measured pIC50 of NS(=O)(=O)c1ccc(-c2sc(-c3ccccc3Cl)nc2-c2ccc(F)cc2)cc1 in your reply.
> 7.00
